# TESTED ON: T1, CCL16_HUMAN (Homo sapiens, UniProt O15467)
# T1 sequence (O15467 24-120): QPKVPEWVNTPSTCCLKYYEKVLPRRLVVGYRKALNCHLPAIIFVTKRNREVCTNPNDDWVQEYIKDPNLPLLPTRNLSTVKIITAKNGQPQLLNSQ
# ASSAY NOTES: Biolayer interferometry (BLI) binding
I'd appreciate it if you could supply Kd values for the items below.
Give bare numbers, in nM.

Some entries whose results are on file:
P467_RHIPU: tick CKBP (evasin), Rhipicephalus pulchellus; RPU-01 stated identical (protein, listed as Rhipicephalus pulchellus) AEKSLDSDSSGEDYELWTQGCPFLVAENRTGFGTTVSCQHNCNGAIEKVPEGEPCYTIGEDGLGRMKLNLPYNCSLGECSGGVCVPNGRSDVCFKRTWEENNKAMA	14.1
P985_AMBPA: tick CKBP, Amblyomma parvum (protein, listed as Amblyomma parvum) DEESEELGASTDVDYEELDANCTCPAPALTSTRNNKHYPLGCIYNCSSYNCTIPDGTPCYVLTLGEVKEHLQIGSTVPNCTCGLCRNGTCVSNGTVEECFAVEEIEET	45
P672_RHIPU: tick CKBP, Rhipicephalus pulchellus (protein, listed as Rhipicephalus pulchellus) VCEVSEQEGVGEDNATEDEDYEDFFKPVTCYFANSTVGPLRPPNCTVVCTNNTAWWNDTKSDGGHCYSEYRPEKRTHSREIYNCTIGVCGNGTCIANHTYADCW	3.3

Would you kindly share the measured Kd for P1243_AMBAM: tick CKBP, Amblyomma americanum; AAM-02 stated identical (protein, listed as Amblyomma americanum) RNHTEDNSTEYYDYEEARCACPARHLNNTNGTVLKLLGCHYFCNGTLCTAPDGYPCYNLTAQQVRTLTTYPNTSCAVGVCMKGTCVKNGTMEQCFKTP ?
0.926
